targetOfAssay: c-Met (cytoplasmic domain) (Homo sapiens, UniProt P08581)
Construct: 10 ng/mL c-Met (cytoplasmic domain, Invitrogen Corporation #PV3143); purchased Invitrogen Corporation PV3143
Sequence (P08581 956-1390 limits assumed): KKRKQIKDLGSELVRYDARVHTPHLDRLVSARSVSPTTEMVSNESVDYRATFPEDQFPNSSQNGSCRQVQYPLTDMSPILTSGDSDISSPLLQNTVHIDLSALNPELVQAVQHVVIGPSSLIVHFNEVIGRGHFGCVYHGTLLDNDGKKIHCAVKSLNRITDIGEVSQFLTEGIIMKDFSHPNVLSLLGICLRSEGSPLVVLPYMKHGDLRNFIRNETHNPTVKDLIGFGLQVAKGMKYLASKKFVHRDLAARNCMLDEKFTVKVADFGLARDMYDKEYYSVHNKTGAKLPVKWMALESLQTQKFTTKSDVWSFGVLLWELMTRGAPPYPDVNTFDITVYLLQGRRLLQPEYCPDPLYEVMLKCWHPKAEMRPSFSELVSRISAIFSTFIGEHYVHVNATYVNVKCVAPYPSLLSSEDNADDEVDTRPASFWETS
assayComment: c-Met Kinase Assay (same methods as for ALK, with modifications)
Format: biochemical
testConditions: c-Met kinase inhibition, 1 μM ATP; read-out: cMet Activity
Parameter: IC50. Scope: all listed entries.

Look up IC50: CC(C)[C@H](Nc1nc(Nc2ccc3c(c2)CCOC(=O)N3C)ncc1Cl)C(N)=O
> 10 µM

Another compound: COc1cc2c(cc1Nc1ncc(Cl)c(Nc3ccccc3OC)n1)CCOC(=O)N2C
> 10 µM

Another compound: C#CCNC(=O)c1cccc(F)c1Nc1nc(Nc2ccc3c(c2)N(C(C)=O)CCCC3(C)C)ncc1Cl
< 0.1 µM

Another compound: C=CCOc1cccc(F)c1Nc1nc(Nc2ccc3c(c2)CCOC(=O)N3C)ncc1Cl
< 0.1 µM

Another compound: CNC(=O)c1cccc(F)c1Nc1nc(Nc2ccc3c(c2)C(C)(C)NC(=O)CC3)ncc1Cl
< 0.1 µM

Another compound: CNC(=O)c1c(F)cccc1Nc1nc(Nc2ccc3c(c2)CCOC(=O)N3C)ncc1Cl
< 0.1 µM

The reported numbers originate from patent US8148391B2.
